# Test system: SMN2-linked luciferase-reporter gene construct
# Test Description: SMN Splice Reporter Assay (SMN2-linked luciferase reporter)
# Format: cell-based
# Measurement Parameters: fold-increase of luciferase over baseline reading of transformed cells without any test compound
Measured Parameter: Fold Increase
Kindly provide the number alone.

Would you please look over these solved cases?
| Molecule | Target Entity | Fold Increase |
| --- | --- | --- |
| COc1cccc2c1CN(c1ccc3ncccc3c1)C2=O [Example 120956] | SMN2-linked luciferase-reporter gene construct | 1.329 |
| O=C1c2cc3c(cc2CN1c1ccc(Br)cn1)OCCO3 [Example 118736] | SMN2-linked luciferase-reporter gene construct | 1.413 |
| Cn1ccc2ccc(N3Cc4cc(Cl)ccc4C3=O)cc21 [Example 120779] | SMN2-linked luciferase-reporter gene construct | 1.704 |
| COc1ccc2c(c1)CN(c1ccc3c(ccn3C)c1)C2=O [Example 120782] | SMN2-linked luciferase-reporter gene construct | 1.49 |
| COc1ccc2c(c1)C(=O)N(c1ccc3nccc(N(C)C)c3c1)C2 [Example 122820] | SMN2-linked luciferase-reporter gene construct | 1.066 |

Now for the molecule whose Fold Increase we want.
Prompt line: Which measured Fold Increase value corresponds to Cn1ccc2cc(N3Cc4ccc(OC(F)(F)Br)cc4C3=O)ccc21 [Example 122431] ?
Response line: 1.552

* * *

Each item that follows carries a reported EC50.
# Test system: SMN2-linked luciferase-reporter gene construct
# Test Description: SMN Splice Reporter Assay (SMN2-linked luciferase reporter)
# Format: cell-based
# Measurement Parameters: cervical carcinoma cell lines, SMN2 splice luciferase reporter
Enter your answer as a number in nM; do not include the unit.

Field: example entries. Status: answers known.
| Smiles Entry | Unit | EC50 |
| --- | --- | --- |
| COc1ccc2c(c1)C(=O)N(c1ccc3nc(Cl)ccc3c1)C2 | nM | 119 |
| COCCn1ccc2cc(N3Cc4ccc(OC)cc4C3=O)ccc21 | nM | 68 |
| CC(C)n1ccc2cc(N3Cc4ccc(Br)cc4C3=O)ccc21 | nM | 16 |
| COc1ccc2c(c1)C(=O)N(c1ccc3cc4n(c3c1)CCC4)C2 | nM | 327 |
| O=C1c2cc(OC(F)F)ccc2CN1c1ccc2sccc2c1 | nM | 115 |
| COc1ccc2c(c1)CN(c1ccc3ncccc3c1)C2=O | nM | 135 |
| COCn1ccc2cc(N3Cc4ccc(OC)cc4C3=O)ccc21 | nM | 59 |
| CCCn1ccc2ccc(N3Cc4ccc(OC)cc4C3=O)cc21 | nM | 2280 |
| COc1ccc2c(c1)C(=O)N(c1ccc3c(ccn3C)c1)C2 | nM | 45 |
| COc1ccc2c(c1)C(=O)N(c1ccc3cnn(C)c3c1)C2 | nM | 415 |

Prompt line: Which EC50 is listed for Cn1ccc2cc(N3Cc4cc(Br)ccc4C3=O)ccc21 ?
Response line: 112

Prompt line: Check Cn1ccc2cc(N3Cc4ccc(Br)cc4C3=O)ccc21 too.
Response line: 96

Prompt line: Thanks! And Cn1ccc2ccc(N3Cc4ccc(-c5ccccc5)cc4C3=O)cc21 ?
Response line: 373

* * *

# System: SMN2-linked luciferase-reporter gene construct
# Test Description: SMN Splice Reporter Assay (SMN2-linked luciferase reporter)
# Type: cell-based
# Measurement Parameters: cervical carcinoma cell lines, SMN2 splice luciferase reporter
Measured Parameter: pEC50
Value format note: pEC50 is -log10 of concentration (mol/L); just state the number.

Some compounds with known pEC50 results, for comparison:
| Compound | Target Entity | pEC50 |
| --- | --- | --- |
| CCc1ccc2c(c1)C(=O)N(c1ccc3c(ccn3C)c1)C2 [Example 121793] | SMN2-linked luciferase-reporter gene construct | 7.07 |
| Cc1cccc2c1CN(c1ccc3ccn(C)c3c1)C2=O [Example 120953] | SMN2-linked luciferase-reporter gene construct | 5.93 |

Prompt line: Would you mind telling me what pEC50 value was observed for Cn1ccc2cc(N3Cc4ccc(OC(F)(F)Br)cc4C3=O)ccc21 [Example 122431] ?
Response line: 6.66

Prompt line: Entry to check: CCOc1ccc2c(c1)C(=O)N(c1ccc3sccc3c1)C2 [Example 122554]
Response line: 7.57

Prompt line: And the next one, CCc1ccc2c(c1)C(=O)N(c1ccc3c(c1)cc(C)n3C)C2 [Example 123016] ?
Response line: 6.71

Prompt line: For COc1ccc2c(c1)C(=O)N(c1ccc3nc(N(C)C)ccc3c1)C2 [Example 123332] then?
Response line: 6.68

Prompt line: Could you do the same for COCCn1ccc2ccc(N3Cc4ccc(OC)cc4C3=O)cc21 [Example 120284] , please?
Response line: 5.10

Prompt line: Now this one: COc1ccc2c(c1)C(=O)N(c1ccc3nc(N(C)C)ncc3c1)C2 [Example 122039]
Response line: 5.15

Prompt line: Now consider CC(=O)Nc1cccc2c1C(=O)N(c1ccc3c(ccn3C)c1)C2 [Example 121081] .
Response line: 6.75

Value source: patent US20100267712A1
